experiment: Particle size distribution and specific surface area (LS 200, Small Volume Module, Fraunhofer optical model); type: physicochemical; conditions: Particle Diameter (Lower) 6.158 μm
Below, each entry is listed with its recorded Cum. < Volume %.
# include the unit after the value

Prompt: Name the recorded Cum. < Volume % for O=C([O-])CCNC(=O)c1ccc(/N=N/c2ccc(O)c(C(=O)[O-])c2)cc1.[Na+].[Na+] [Sample 4] .
Response: 17.2%

Prompt: For the compound O=C(O)CCNC(=O)c1ccc(/N=N/c2ccc(O)c(C(=O)O)c2)cc1 [Feed Powder Sample B (#41.$02)] , what Cum. < Volume % is on record?
Response: 14.2%

Prompt: // Cum. < Volume % lookup, key: O=C(O)CCNC(=O)c1ccc(/N=N/c2ccc(O)c(C(=O)O)c2)cc1 [Feed Powder Sample C (#53.$02)]
Response: 44.2%

Prompt: Fill in the blank: the reported Cum. < Volume % of O=C(O)CCNC(=O)c1ccc(/N=N/c2ccc(O)c(C(=O)O)c2)cc1 [Feed Powder Sample A (#35.$01)] is ____.
Response: 38.3%

Prompt: For the compound shown here, O=C([O-])CCNC(=O)c1ccc(/N=N/c2ccc(O)c(C(=O)[O-])c2)cc1.[Na+].[Na+] [Sample 3] , give the reported Cum. < Volume %.
Response: 46.4%

Prompt: Item under review: O=C([O-])CCNC(=O)c1ccc(/N=N/c2ccc(O)c(C(=O)[O-])c2)cc1.[Na+].[Na+] [Sample 2] . Reported Cum. < Volume %?
Response: 59.3%

Prompt: GET /values?readout=Cum. < Volume %&item= O=C([O-])CCNC(=O)c1ccc(/N=N/c2ccc(O)c(C(=O)[O-])c2)cc1.[Na+].[Na+] [Sample 1]
Response: 54.5%

###

assay: Particle size distribution and specific surface area (LS 200, Small Volume Module, Fraunhofer optical model); format: physicochemical; settings: Particle Diameter (Lower) 176.9 μm
This listing pairs compounds with measured Diff. Volume %.
Output spec: scalar in %, unitless text.

[[record]]
compound = "O=C(O)CCNC(=O)c1ccc(/N=N/c2ccc(O)c(C(=O)O)c2)cc1 [Feed Powder Sample A (#35.$01)]"
unit_abbrev = "%"
assay_value = 0

[[record]]
compound = "O=C([O-])CCNC(=O)c1ccc(/N=N/c2ccc(O)c(C(=O)[O-])c2)cc1.[Na+].[Na+] [Sample 3]"
unit_abbrev = "%"
assay_value = 0

[[record]]
compound = "O=C([O-])CCNC(=O)c1ccc(/N=N/c2ccc(O)c(C(=O)[O-])c2)cc1.[Na+].[Na+] [Sample 4]"
unit_abbrev = "%"
assay_value = 0.24

[[record]]
compound = "O=C([O-])CCNC(=O)c1ccc(/N=N/c2ccc(O)c(C(=O)[O-])c2)cc1.[Na+].[Na+] [Sample 2]"
unit_abbrev = "%"
assay_value = 0

[[record]]
compound = "O=C([O-])CCNC(=O)c1ccc(/N=N/c2ccc(O)c(C(=O)[O-])c2)cc1.[Na+].[Na+] [Sample 1]"
unit_abbrev = "%"
assay_value = 0

[[record]]
compound = "O=C(O)CCNC(=O)c1ccc(/N=N/c2ccc(O)c(C(=O)O)c2)cc1 [Feed Powder Sample B (#41.$02)]"
unit_abbrev = "%"
assay_value = 0.73


Would you kindly look at the next entry?
Prompt: Need Diff. Volume % of O=C(O)CCNC(=O)c1ccc(/N=N/c2ccc(O)c(C(=O)O)c2)cc1 [Feed Powder Sample C (#53.$02)] , thanks.
Response: 0
